# tested on: recombinant eIF4E (Homo sapiens (Human), UniProt P06730)
# Sequence (P06730 whole entry): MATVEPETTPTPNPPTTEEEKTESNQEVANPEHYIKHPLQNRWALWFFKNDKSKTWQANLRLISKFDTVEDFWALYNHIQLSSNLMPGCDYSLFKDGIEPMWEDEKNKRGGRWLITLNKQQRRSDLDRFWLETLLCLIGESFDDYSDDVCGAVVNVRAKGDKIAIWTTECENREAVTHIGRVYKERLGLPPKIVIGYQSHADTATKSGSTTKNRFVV
# experiment description: Fluorescence polarization competition assay for eIF4E binding potency
# protocol conditions: inhibition of eIF4E/EDA-m7GDP-ATTO-550 binding; calculated IC50 values, Table 4B; read-out: IC50
measurement kind: IC50 (µM)

Reference set, count: 4
Cc1nc2cnc(N3CCN(C4(CF)CC4)CC3)c(C#N)c2c(=O)n1CCOc1ccc(Cl)cc1-c1ccnc2c(C(=O)O)csc12	0.013
Cc1nc2cnc(N3CCN(C4CC4)C4(CC4)C3)c(C#N)c2c(=O)n1CCOc1ccc(Cl)cc1-c1ccnc2c(C(=O)O)csc12	0.0263
Cc1nc2cnc(C3=CCC(N(C)CC(F)F)CC3)c(C#N)c2c(=O)n1CC#Cc1ccc(Cl)cc1-c1ccnc2c(C(=O)O)csc12 (stereo not drawn)	0.0222
Cc1nc2cnc(N(C)C3CCN(CC4(C(F)(F)F)CCO4)CC3)c(C#N)c2c(=O)n1CC#Cc1ccc(Cl)cc1-c1ccnc2c(C(=O)O)csc12 (stereo not drawn)	0.0134

[I] Cc1nc2cnc(N(C)[C@@H]3[C@@H]4C[C@H]3CN(CC(C)(F)F)C4)c(C#N)c2c(=O)n1CC#Cc1ccc(Cl)cc1-c1ccnc2c(C(=O)O)csc12
[II] Cc1nc2cnc(N(C)C3CCN(CC(C)(C)C(F)(F)F)CC3)c(C#N)c2c(=O)n1CC#Cc1ccc(Cl)cc1-c1ccnc2c(C(=O)O)csc12
Problem: Form field 'greater IC50' accepts I or II ; which applies? Identify your pick by its label.
Result: II

[a] Cc1nc2cnc(N3CCN(C4(CCF)CC4)CC3)c(C#N)c2c(=O)n1CCOc1ccc(Cl)cc1-c1ccnc2c(C(=O)O)csc12
[b] Cc1sc2c(-c3cc(Cl)ccc3OCCn3c(C)nc4cc(C(F)(F)F)c(N5CCN(C)CC5)c(C#N)c4c3=O)ccc(F)c2c1C(=O)O
Problem: a or b : whose IC50 is greater? Response format: the label of the selected entry.
Result: b
(b: 0.0342 µM, a: 0.013 µM)

[I] Cc1nc2cnc(N3CCN(C(C)C(F)(F)F)CC3)c(C#N)c2c(=O)n1CCOc1ccc(Cl)cc1-c1ccnc2c(C(=O)O)csc12 (stereo not drawn)
[II] CNc1cc2c(=O)n(CCOc3ccc(Cl)cc3-c3cccc(C(=O)O)c3)c(C)nc2cn1
Problem: Rank I against II by their IC50 values and give the higher one. Pick one; state its label.
Result: II
(II: 0.611 µM, I: 0.0131 µM)
